Where do these numbers come from? They come from patent US20100004128A1.

For each of the compounds below, state its Herbicidal action (damage score) DIGSA.
- Tested on: Monocotyledonous and dicotyledonous test plants
- assayNotes: Herbicidal action, application pre-emergence
- Assay type: in vivo
- settings: Digitaria sanguinalis, spray solution 1000 mg/l, scale 0-10
Enter a number only.

In: Identify measured Herbicidal action (damage score) DIGSA obtained with Monocotyledonous and dicotyledonous test plants for "Cn1ncc(C(F)(F)S(=O)(=O)C2=NOC(C)(C)C2)n1" .
Out: 9

In: Identify measured Herbicidal action (damage score) DIGSA obtained with Monocotyledonous and dicotyledonous test plants for "Cc1nn(C)nc1C(F)(F)S(=O)(=O)C1=NOC(C)(C)C1" .
Out: 10

In: Identify measured Herbicidal action (damage score) DIGSA obtained with Monocotyledonous and dicotyledonous test plants for Cn1nc(Br)c(C(F)(F)[S+]([O-])C2=NOC(C)(C)C2)n1 (stereo not drawn) .
Out: 9

In: Identify measured Herbicidal action (damage score) DIGSA obtained with Monocotyledonous and dicotyledonous test plants for Cc1nn(C)nc1C(F)(F)[S+]([O-])C1=NOC(C)(C)C1 (stereo not drawn) .
Out: 10

In: Identify measured Herbicidal action (damage score) DIGSA obtained with Monocotyledonous and dicotyledonous test plants for "Cc1nn(C(F)F)nc1C(F)(F)S(=O)(=O)C1=NOC(C)(C)C1" .
Out: 10

In: Identify measured Herbicidal action (damage score) DIGSA obtained with Monocotyledonous and dicotyledonous test plants for CC1(C)CC([S+]([O-])C(F)c2nn(C3CCCC3)nc2C(F)(F)F)=NO1 (mixture of isomers) .
Out: 9

In: Identify measured Herbicidal action (damage score) DIGSA obtained with Monocotyledonous and dicotyledonous test plants for "CCc1nn(C)nc1C(F)(F)S(=O)(=O)C1=NOC(C)(C)C1" .
Out: 10

In: Identify measured Herbicidal action (damage score) DIGSA obtained with Monocotyledonous and dicotyledonous test plants for "CCn1nc(C(F)(F)F)c(C(F)(F)S(=O)(=O)C2=NOC(C)(C)C2)n1" .
Out: 10

In: Identify measured Herbicidal action (damage score) DIGSA obtained with Monocotyledonous and dicotyledonous test plants for Cn1nnc(Br)c1C(F)[S+]([O-])C1=NOC(C)(C)C1 (mixture of isomers) .
Out: 10
